Listed here are compounds together with their documented F.
Experiment: Pharmacokinetic test in mice (IV and PO)
Format: in vivo, BALB/c mice
Details: mice, PO 5 mg/kg
Assay Endpoint: F (%)

# Compound, Assay Endpoint, Measured Number
rows = [
    ("O=C(N[C@@H]1CCCC[C@H]1N1Cc2ccc(-c3nnc(C(F)F)o3)cc2S1(=O)=O)N1CCOCC1 [Compound 113]", "F", 101.8),
    ("O=C(N[C@@H]1CCOC[C@H]1N1Cc2ccc(-c3nnc(C(F)F)o3)cc2S1(=O)=O)C(F)F [Compound 14]", "F", 71.27),
    ("CC(F)(F)C(=O)N[C@@H]1CCCC(F)(F)[C@H]1N1Cc2ccc(-c3nnc(C(F)F)o3)cc2S1(=O)=O [Compound 10]", "F", 117.1),
    ("Cn1cc([C@@H]([C@H](O)c2ccccc2)N2Cc3ccc(-c4nnc(C(F)F)o4)cc3S2(=O)=O)cn1 [Compound 80]", "F", 101.2),
    ("O=S1(=O)c2cc(-c3nnc(C(F)F)o3)ccc2CN1[C@H](c1ccccn1)[C@H](O)c1ccc(F)cn1 [Compound 87]", "F", 175.8),
    ("O=C(N[C@@H]1COCC[C@H]1N1Cc2ccc(-c3nnc(C(F)F)o3)cc2S1(=O)=O)C(F)F [Compound 13]", "F", 97.0),
    ("CN(C)C(=O)N[C@@H]1CCCC[C@H]1N1Cc2ccc(-c3nnc(C(F)F)o3)cc2S1(=O)=O [Compound 93]", "F", 84.4),
]
